Method Description: Stability in aqueous solution under long-term storage conditions (related substances)
Format: physicochemical
Experimental Parameters: 25° C., 75% RH
Square brackets hold non-standard residues; d marks the D form. Peptide text beside a SMILES is read from it. Pro(trans-4-F) = O=C(O)[C@@H]1C[C@@H](F)CN1; Hyp = O=C(O)[C@@H]1C[C@@H](O)CN1
Quantity Measured: Amount of related substances (after 12 weeks) (%)

>  <Compound>
CC(C)C[C@H](NC(=O)CNC(=O)[C@H](CC(C)C)NC(=O)[C@H](CCC(N)=O)NC(=O)CNC(=O)[C@@H]1C[C@@H](O)CN1)C(=O)N[C@@H](C)C(=O)O [YDE-041] (H-[Hyp]GQLGLA-OH)

>  <Obs Value>
3.04

$$$$
>  <Compound>
CC(C)C[C@H](NC(=O)[C@@H](NC(=O)[C@H](CC(=O)O)NC(=O)[C@H](CCC(N)=O)NC(=O)CNC(=O)[C@@H]1C[C@@H](O)CN1)C(C)C)C(=O)N[C@@H](C)C(=O)NCC(=O)N1CCC[C@H]1C(=O)N[C@@H](CCCCN)C(=O)O [YDE-015] (H-[Hyp]GQDVLAGPK-OH)

>  <Obs Value>
13.05

$$$$
>  <Compound>
CC(C)C[C@H](NC(=O)CNC(=O)[C@H](CC(C)C)NC(=O)[C@H](CCC(N)=O)NC(=O)CNC(=O)[C@@H]1C[C@@H](F)CN1)C(=O)N[C@@H](C)C(=O)NCC(=O)N1CCC[C@H]1C(=O)N[C@@H](CCCCN)C(=O)O [YDE-039] (H-[Pro(trans-4-F)]GQLGLAGPK-OH)

>  <Obs Value>
2.19

$$$$
>  <Compound>
CC(C)C[C@H](NC(=O)[C@H](CC(C)C)NC(=O)[C@H](CC(=O)O)NC(=O)[C@H](CCC(N)=O)NC(=O)CNC(=O)[C@@H]1C[C@@H](O)CN1)C(=O)N[C@@H](C)C(=O)NCC(=O)N1CCC[C@H]1C(=O)N[C@@H](CCCCN)C(=O)O [YDE-017] (H-[Hyp]GQDLLAGPK-OH)

>  <Obs Value>
11.88

$$$$

* * *

System: cornea of rats with dry eye syndrome (ELGE)
Method Description: Corneal permeability of fluorescent dye (corneal damage) in ELGE rats with dry eye syndrome
Type: in vivo, rat
Experimental Parameters: Table 7, study of YDE-029 to YDE-043, 3 mg/ml, 5 μl/eye twice daily, day 14
Numbered stars: 1 amine (or outer) side, 2 acyl side, 3 side chain; on linkers, the order of the positions; unused ones are H or OH. Square brackets hold non-standard residues; d marks the D form. Peptide text beside a SMILES is read from it. Pro(trans-4-F) = O=C(O)[C@@H]1C[C@@H](F)CN1; X1 = O=C([C@H](CCCCO)N[*:1])[*:2]; Hyp = O=C(O)[C@@H]1C[C@@H](O)CN1
Quantity Measured: Permeability of fluorescent dye (%)
Form entry: value (%) — number only.

Take a look at these entries with their results.
>  <Compound>
CC(C)C[C@H](NC(=O)CNC(=O)[C@H](CC(C)C)NC(=O)[C@H](CCC(N)=O)NC(=O)CNC(=O)[C@@H]1C[C@@H](F)CN1)C(=O)N[C@@H](C)C(=O)NCC(=O)N1CCC[C@H]1C(=O)N[C@@H](CCCCN)C(=O)O [YDE-039] (H-[Pro(trans-4-F)]GQLGLAGPK-OH)

>  <Obs Value>
29.94

$$$$
>  <Compound>
CC(C)C[C@H](NC(=O)CNC(=O)[C@H](CC(C)C)NC(=O)[C@H](CCC(N)=O)NC(=O)CNC(=O)[C@@H]1C[C@@H](O)CN1)C(=O)N[C@@H](C)C(=O)NCC(=O)N1CCC[C@H]1C(=O)N[C@@H](CCCCO)C(=O)O [YDE-033] (H-[Hyp]GQLGLAGP[X1]-OH)

>  <Obs Value>
60.55

$$$$
>  <Compound>
CC(C)C[C@H](NC(=O)CNC(=O)[C@H](CC(C)C)NC(=O)[C@H](CCC(N)=O)NC(=O)CNC(=O)[C@@H]1C[C@@H](O)CN1)C(=O)N[C@@H](C)C(=O)NCC(=O)N1CCC[C@H]1C(=O)N[C@@H](CCC(=O)O)C(=O)O [YDE-031] (H-[Hyp]GQLGLAGPE-OH)

>  <Obs Value>
33.35

$$$$
>  <Compound>
CC(C)C[C@H](NC(=O)[C@@H]1CCCN1C(=O)CNC(=O)[C@H](C)NC(=O)[C@H](CC(C)C)NC(=O)CNC(=O)[C@H](CC(C)C)NC(=O)[C@H](CCC(N)=O)NC(=O)CNC(=O)[C@@H]1C[C@@H](O)CN1)C(=O)O [YDE-030] (H-[Hyp]GQLGLAGPL-OH)

>  <Obs Value>
30.60

$$$$

## Input So what does the record say about Permeability of fluorescent dye for CC(C)C[C@H](NC(=O)CNC(=O)[C@H](CC(C)C)NC(=O)[C@H](CCC(N)=O)NC(=O)CNC(=O)[C@@H]1C[C@@H](O)CN1)C(=O)N[C@@H](C)C(=O)O [YDE-041] (H-[Hyp]GQLGLA-OH) ?
## Output 46.38

* * *

Tested on: cornea of rats with dry eye syndrome (ELGE)
Method Description: Corneal permeability of fluorescent dye (corneal damage) in ELGE rats with dry eye syndrome
Assay type: in vivo, rat
Experimental Parameters: Table 6, study of YDE-001 to YDE-028, 3 mg/ml, 5 μl/eye twice daily, day 14
Square brackets hold non-standard residues; d marks the D form. Peptide text beside a SMILES is read from it. ξ: configuration not given here. Hyp = O=C(O)[C@@H]1C[C@@H](O)CN1; Thr(3ξ) = CC(O)[C@H](N)C(=O)O
Form field: Permeability of fluorescent dye (one value per entry).
Form entry: value (%) — number only.

Take a look at these entries with their results.
>  <Compound>
CC(C)C[C@H](NC(=O)CNC(=O)[C@H](Cc1ccc(O)cc1)NC(=O)[C@H](CCC(N)=O)NC(=O)CNC(=O)[C@@H]1C[C@@H](O)CN1)C(=O)N[C@@H](C)C(=O)NCC(=O)N1CCC[C@H]1C(=O)N[C@@H](CCCCN)C(=O)O [YDE-013] (H-[Hyp]GQYGLAGPK-OH)

>  <Quantity Measured>
Permeability of fluorescent dye

>  <Obs Value>
32.24

$$$$
>  <Compound>
CC(C)C[C@H](NC(=O)CNC(=O)[C@H](CC(N)=O)NC(=O)[C@H](CCC(N)=O)NC(=O)CNC(=O)[C@@H]1C[C@@H](O)CN1)C(=O)N[C@@H](C)C(=O)NCC(=O)N1CCC[C@H]1C(=O)N[C@@H](CCCCN)C(=O)O [YDE-002] (H-[Hyp]GQNGLAGPK-OH)

>  <Quantity Measured>
Permeability of fluorescent dye

>  <Obs Value>
38.26

$$$$
>  <Compound>
CC(C)C[C@H](NC(=O)CNC(=O)[C@H](C)NC(=O)[C@H](CCC(N)=O)NC(=O)CNC(=O)[C@@H]1C[C@@H](O)CN1)C(=O)N[C@@H](C)C(=O)NCC(=O)N1CCC[C@H]1C(=O)N[C@@H](CCCCN)C(=O)O [YDE-008] (H-[Hyp]GQAGLAGPK-OH)

>  <Quantity Measured>
Permeability of fluorescent dye

>  <Obs Value>
20.32

$$$$

## Input Identify the measured Permeability of fluorescent dye of CC(C)C[C@H](NC(=O)CNC(=O)[C@H](CO)NC(=O)[C@H](CCC(N)=O)NC(=O)CNC(=O)[C@@H]1C[C@@H](O)CN1)C(=O)N[C@@H](C)C(=O)NCC(=O)N1CCC[C@H]1C(=O)N[C@@H](CCCCN)C(=O)O [YDE-006] (H-[Hyp]GQSGLAGPK-OH) for cornea of rats with dry eye syndrome (ELGE).
## Output 33.23

## Input Identify the measured Permeability of fluorescent dye of CC(C)C[C@H](NC(=O)[C@H](CC(C)C)NC(=O)[C@H](CC(=O)O)NC(=O)[C@H](CCC(N)=O)NC(=O)CNC(=O)[C@@H]1C[C@@H](O)CN1)C(=O)N[C@@H](C)C(=O)NCC(=O)N1CCC[C@H]1C(=O)N[C@@H](CCCCN)C(=O)O [YDE-017] (H-[Hyp]GQDLLAGPK-OH) for cornea of rats with dry eye syndrome (ELGE).
## Output 39.76

## Input Identify the measured Permeability of fluorescent dye of CC(C)C[C@H](NC(=O)[C@@H](NC(=O)[C@H](CC(=O)O)NC(=O)[C@H](CCC(N)=O)NC(=O)CNC(=O)[C@@H]1C[C@@H](O)CN1)C(C)O)C(=O)N[C@@H](C)C(=O)NCC(=O)N1CCC[C@H]1C(=O)N[C@@H](CCCCN)C(=O)O (stereo partly shown) [YDE-024] (H-[Hyp]GQD[Thr(3ξ)]LAGPK-OH) for cornea of rats with dry eye syndrome (ELGE).
## Output 30.63

## Input Identify the measured Permeability of fluorescent dye of CC(C)C[C@H](NC(=O)[C@H](CO)NC(=O)[C@H](CC(=O)O)NC(=O)[C@H](CCC(N)=O)NC(=O)CNC(=O)[C@@H]1C[C@@H](O)CN1)C(=O)N[C@@H](C)C(=O)NCC(=O)N1CCC[C@H]1C(=O)N[C@@H](CCCCN)C(=O)O [YDE-023] (H-[Hyp]GQDSLAGPK-OH) for cornea of rats with dry eye syndrome (ELGE).
## Output 26.51
